- TEST_TARGET: Human NPY Y1 receptors (Homo sapiens, UniProt P25929)
- Construct: expressed in transfected cells; host or cells: CHO cells (membrane protein)
- ASSAY: NPY Receptor Binding Assay
- Experimental: NPY Receptor Binding Assay Human NPY Y1 receptors were expressed in CHO cells. Binding assays were performed in 50 mM HEPES, pH 7.2, 2.5 mM CaCl2, 1 mM MgCl2 and 0.1% BSA containing 5-10 μg of membrane protein and 0.1 nM […] in a total volume of 200 μl. Non-specific binding was determined in the presence of 1 μM NPY. […] The filters were washed with phosphate-buffered saline, and radioactivity was measured in a Packard TopCount scintillation counter.
TEST_READOUT: Ki

Solved cases below.
Which measured Ki value corresponds to `C[C@@H]1N/C(=N/c2ccc(CCNc3nc4ccc(Cl)cc4s3)cc2)SC1=O` ?
> 10 µM

What value of measured Ki is listed for `CC(C)C[C@@H]1N/C(=N/c2ccc(CCNc3nc4ccccc4s3)cc2)SC1=O` ?
> 10 µM

Request the reported Ki associated with `COc1cccc2sc(NCCc3ccc(/N=C4\SC(=O)[C@@H]5CCCN45)cc3)nc12`
> 10 µM

Turning now to a further compound:
Field request: Ki | item: `CC(C)[C@@H]1N/C(=N/c2ccc(CCNc3nc4ccccc4s3)cc2)SC1=O`
> 10 µM

---

- TEST_TARGET: Human NPY Y1 receptors (Homo sapiens, UniProt P25929)
- Construct: expressed in transfected cells; host or cells: CHO cells (membrane protein)
- ASSAY: NPY Receptor Binding Assay
- ASSAY_SETUP: Procedure C compounds, rated A/B/C
pKi: −log10 of the molar value.
Reported pKi values are given for each entry in this list.

Please give the measured pKi for this molecule: O=C(O)C[C@@H]1N=C(Nc2ccc(CCNc3nc4ccccc4s3)cc2)N(C(=O)c2ccccc2)C1=O [Example 49]
< 5.00

Tell me the measured pKi of CSCC[C@@H]1N=C(Nc2ccc(CCNc3nc4ccccc4s3)cc2)N(C(=O)c2ccccc2)C1=O [Example 54] , please.
< 5.00

Fill in the blank: the reported pKi of O=C(O)CC[C@@H]1N=C(Nc2ccc(CCNc3nc4ccccc4s3)cc2)N(C(=O)c2ccccc2)C1=O [Example 51] is ____.
< 5.00

For CCOC(=O)N1C(=O)[C@H](CCC(=O)O)N=C1Nc1ccc(CCNc2nc3ccccc3s2)cc1 [Example 40] , what is its reported pKi?
< 5.00

Report pKi for CC[C@H](C)[C@@H]1N=C(Nc2ccc(CCNc3nc4ccccc4s3)cc2)N(C(=O)c2ccccc2)C1=O [Example 52] please.
< 5.00

More entries:
Which pKi value is on record for O=C(c1ccccc1)N1C(=O)[C@H](CC2CCCCC2)N=C1Nc1ccc(CCNc2nc3ccccc3s2)cc1 [Example 50] ?
< 5.00

Sample CCOC(=O)N1C(=O)[C@H]([C@@H](C)CC)N=C1Nc1ccc(CCNc2nc3ccccc3s2)cc1 [Example 41] — what was its pKi?
< 5.00

Report pKi for CCOC(=O)N1C(=O)[C@H](CC(=O)O)N=C1Nc1ccc(CCNc2nc3ccccc3s2)cc1 [Example 38] please.
< 5.00

Name the reported pKi value associated with the molecule CC(C)C[C@@H]1N=C(Nc2ccc(CCNc3nc4ccccc4s3)cc2)N(C(=O)c2ccccc2)C1=O [Example 53]
< 5.00

# get_value(readout='pKi', item= CCOC(=O)N1C(=O)[C@H](C)N=C1Nc1ccc(CCNc2nc3ccccc3s2)cc1 [Example 37] )
< 5.00

Name the recorded pKi for CCOC(=O)N1C(=O)[C@H](CC2CCCCC2)N=C1Nc1ccc(CCNc2nc3ccccc3s2)cc1 [Example 39] .
< 5.00

So what's the measured pKi for this one? CCOC(=O)N1C(=O)CN=C1Nc1ccc(CCNc2nc3ccccc3s2)cc1 [Example 36]
< 5.00

---

The entries below are paired with their reported pKi.
- TEST_TARGET: Human NPY Y1 receptors (Homo sapiens, UniProt P25929)
- Construct: expressed in transfected cells; host or cells: CHO cells (membrane protein)
- ASSAY: NPY Receptor Binding Assay
- ASSAY_SETUP: Procedure A compounds, rated A/B/C
pKi: −log10 of the molar value.

Here's what some known entries look like.
Dear colleague, I am looking for the recorded pKi of the following compound: COc1ccc2nc(NCCc3ccc(NC4=NCCS4)cc3)sc2c1 [Example 16]
5.00 to 6.00

Name the reported pKi value associated with the compound Cc1cccc2sc(NCCc3ccc(NC4=NCCS4)cc3)nc12 [Example 23]
5.00 to 6.00

So what does the record say about pKi for O=[N+]([O-])c1ccc2nc(NCCc3ccc(NC4=NCCS4)cc3)sc2c1 [Example 18] ?
5.00 to 6.00

Which pKi is listed for Cc1ccc2nc(NCCc3ccc(NC4=NCCS4)cc3)sc2c1 [Example 17] ?
5.00 to 6.00

Which pKi value is on record for c1cc(CCNc2nc3ccccc3s2)cc(NC2=NCCS2)c1 [Example 25] ?
< 5.00

More entries:
Could you tell me which pKi is on file for Fc1ccc2nc(NCCc3ccc(NC4=NCCS4)cc3)sc2c1 [Example 21] ?
5.00 to 6.00

Can you share its pKi? I mean this compound: Clc1cc2nc(NCCc3ccc(NC4=NCCS4)cc3)sc2cc1Cl [Example 20]
5.00 to 6.00

Name the reported pKi value associated with the compound CS(=O)(=O)c1ccc2nc(NCCc3ccc(NC4=NCCS4)cc3)sc2c1 [Example 15]
5.00 to 6.00

I am curious: what pKi value has been reported for COc1cccc2sc(NCCc3ccc(NC4=NCCS4)cc3)nc12 [Example 22] ?
5.00 to 6.00

Please look up its pKi: c1ccc2sc(NCCc3ccc(N(C4=NCCS4)C4=NCCS4)cc3)nc2c1 [Example 14]
< 5.00

Give the measured pKi of c1ccc(NC2=NCCS2)c(CCNc2nc3ccccc3s2)c1 [Example 24] .
< 5.00

Param item = Clc1ccc2nc(NCCc3ccc(NC4=NCCS4)cc3)sc2c1 [Example 19] ; retrieve measured pKi.
5.00 to 6.00

---

- TEST_TARGET: Human NPY Y1 receptors (Homo sapiens)
- Construct: expressed in transfected cells; host or cells: CHO cells (membrane protein)
- Sequence (P25929 1-384): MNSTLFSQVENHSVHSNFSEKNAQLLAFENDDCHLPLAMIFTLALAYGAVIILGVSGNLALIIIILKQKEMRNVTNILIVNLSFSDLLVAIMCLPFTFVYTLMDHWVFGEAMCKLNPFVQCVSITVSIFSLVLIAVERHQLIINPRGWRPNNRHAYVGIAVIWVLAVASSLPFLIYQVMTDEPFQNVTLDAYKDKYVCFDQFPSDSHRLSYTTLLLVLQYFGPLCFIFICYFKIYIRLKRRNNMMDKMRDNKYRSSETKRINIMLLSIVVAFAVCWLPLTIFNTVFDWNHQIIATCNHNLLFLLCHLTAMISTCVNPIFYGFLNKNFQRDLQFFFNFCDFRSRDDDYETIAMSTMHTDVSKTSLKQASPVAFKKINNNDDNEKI
- ASSAY: NPY Receptor Binding Assay
- ASSAY_SETUP: Procedure E compounds, rated A/B/C
- Procedure: NPY Receptor Binding Assay Human NPY Y1 receptors were expressed in CHO cells. Binding assays were performed in 50 mM HEPES, pH 7.2, 2.5 mM CaCl2, 1 mM MgCl2 and 0.1% BSA containing 5-10 μg of membrane protein and 0.1 nM […] in a total volume of 200 μl. Non-specific binding was determined in the presence of 1 μM NPY. […] The filters were washed with phosphate-buffered saline, and radioactivity was measured in a Packard TopCount scintillation counter.
pKi: −log10 of the molar value.
Listing of recorded pKi by entry.

Known results for compounds:
Which pKi is reported for this compound? `c1ccc(/N=C2\NCCCS2)c(CCNc2nc3ccccc3s2)c1`
< 5.00

Return reported pKi; argument: `Cc1ccc2nc(NCCc3ccc(/N=C4/NC5(CCCC5)CS4)cc3)sc2c1`
5.00 to 6.00

So what's the measured pKi for this one? `Cc1ccc2nc(NCCc3ccc(/N=C4/N[C@H](C)CS4)cc3)sc2c1`
> 6.00

Can you look up the measured pKi of `CC(C)C[C@@H]1CS/C(=N\c2ccc(CCNc3nc4ccccc4s3)cc2)N1` for me?
> 6.00

Entry CCCC1CS/C(=N\c2ccc(CCNc3nc4ccc(OC)cc4s3)cc2)N1 (stereo not drawn) : reported pKi = ?
> 6.00

Continuing:
For the compound shown here, `COc1ccc2nc(NCCc3ccc(/N=C4/N[C@H](C)CS4)cc3)sc2c1` , give the reported pKi.
5.00 to 6.00

Consider the compound shown here: `CC(C)C[C@@H]1CS/C(=N\c2ccc(CCNc3nc4ccc(Cl)cc4s3)cc2)N1` What is its recorded pKi?
5.00 to 6.00

Please give the measured pKi for this compound: `CC(C)C[C@@H]1CS/C(=N\c2ccc(CCNc3nc4ccc(F)cc4s3)cc2)N1`
> 6.00

Using the record for CCC1CS/C(=N\c2ccc(CCNc3nc4ccc(Cl)cc4s3)cc2)N1 (stereo not drawn) , report its pKi.
5.00 to 6.00

Attribution: patent US7459450B2
